Each recorded value in this set is attributed to paper PMC11491487.

- measurement target: chiRyR-I4657M/G4819E (Oryctolagus cuniculus, UniProt P11716, C4657M/F4564Y/G4819E/L4792S/R4563K)
- assay method text: biochemical
- Type: biochemical, rabbit
- run parameters: Ca2+-dependent [3H]ryanodine binding, mean ± SD, n=4; read-out: EC50 values for Ca2+
observed property: EC50 (µM)

# molecule, assay result
records = [
    ("[Ca+2] [Ca2+]", 4.4),
]

* * *

- measurement target: rRyR1 (Oryctolagus cuniculus, UniProt P11716)
- assay method text: time-lapse [Ca2+]ER fluorescence assay, HEK293 cells
- Assay type: cell-based, rabbit
- run parameters: diamide insecticides, n = 3; read-out: EC50
pEC50: −log10 of the molar value.

# compound structure, pEC50
records = [
    ("CNC(=O)c1cc(C#N)cc(C)c1NC(=O)c1cc(Cn2nnc(C(F)(F)F)n2)nn1-c1ncccc1Cl", 5.12),
]

* * *

- measurement target: rRyR1 L4792S (Oryctolagus cuniculus, UniProt P11716, L4792S)
- assay method text: time-lapse [Ca2+]ER fluorescence assay, HEK293 cells
- run parameters: n = 3
pEC50: −log10 of the molar value.

# compound, pEC50
records = [
    ("CNC(=O)c1cc(Cl)cc(C)c1NC(=O)c1cc(Br)nn1-c1ncccc1Cl", 7.35),
    ("Cc1cc(C(F)(C(F)(F)F)C(F)(F)F)ccc1NC(=O)c1cccc(I)c1C(=O)NC(C)(C)CS(C)(=O)=O [FLU, flubendiamide]", 6.68),
]

* * *

- measurement target: Sf RyR (Spodoptera frugiperda, UniProt A0A4P8L6R5)
- assay method text: time-lapse [Ca2+]ER fluorescence assay, HEK293 cells
- Format: cell-based
- run parameters: n = 3; read-out: EC50
observed property: EC50 (nM)

# compound, measurement target, observed property, assay result
measured = [
    ("CNC(=O)c1cc(Cl)cc(C)c1NC(=O)c1cc(Br)nn1-c1ncccc1Cl [CHL, chlorantraniliprole]", "Sf RyR (Spodoptera frugiperda, UniProt A0A4P8L6R5)", "EC50", 5.5),
    ("Cc1cc(C(F)(C(F)(F)F)C(F)(F)F)ccc1NC(=O)c1cccc(I)c1C(=O)NC(C)(C)CS(C)(=O)=O [FLU, flubendiamide]", "Sf RyR (Spodoptera frugiperda, UniProt A0A4P8L6R5)", "EC50", 59.3),
]
